Data provenance: paper PMC2962915

- EXPERIMENTAL TARGET: clostridial glutamate dehydrogenase (GDH) ([Clostridium] symbiosum)
- Construct: no tag mentioned
- Sequence (P24295 2-450): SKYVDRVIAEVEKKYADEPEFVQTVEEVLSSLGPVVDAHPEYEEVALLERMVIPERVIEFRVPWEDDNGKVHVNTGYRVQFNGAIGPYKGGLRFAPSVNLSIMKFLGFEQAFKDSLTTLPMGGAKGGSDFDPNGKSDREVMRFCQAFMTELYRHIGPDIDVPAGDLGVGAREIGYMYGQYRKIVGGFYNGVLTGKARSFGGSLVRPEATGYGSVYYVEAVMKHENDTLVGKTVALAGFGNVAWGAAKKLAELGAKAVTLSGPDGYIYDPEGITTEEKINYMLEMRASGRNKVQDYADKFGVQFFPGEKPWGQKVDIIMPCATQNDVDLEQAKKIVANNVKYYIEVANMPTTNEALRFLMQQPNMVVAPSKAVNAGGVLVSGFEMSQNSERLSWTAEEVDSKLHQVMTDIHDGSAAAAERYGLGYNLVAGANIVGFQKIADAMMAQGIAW
- ASSAY SUMMARY: protection against DTNB inactivation
- Type: biochemical
- SETTINGS: 0.1 M potassium phosphate, pH 7.0, 25°C, 200 μM DTNB; competitive with DTNB at coenzyme site; Kd corrected for DTNB; read-out: K dNADPH
EXPERIMENTAL ENDPOINT: pKd
The meaning of pKd here: minus log10 of the concentration in molar units.

Query: What value of pKd on clostridial glutamate dehydrogenase (GDH) ([Clostridium] symbiosum) does NC(=O)C1=CN([C@@H]2O[C@H](COP(=O)(O)OP(=O)(O)OC[C@H]3O[C@@H](n4cnc5c(N)ncnc54)[C@H](OP(=O)(O)O)[C@@H]3O)[C@@H](O)[C@H]2O)C=CC1 have?
Result: 4.64
